System: calf thymus ctDNA
ASSAY PROCEDURE: Fluorimetric titration with ctDNA
Format: binding
ASSAY SETUP: fluorescence titration with ctDNA, Scatchard, fixed n = 0.6, pH 7.0, sodium cacodylate I = 0.05 mol dm−3
RECORDED METRIC: LogKs
Answers are plain numbers.

Hi there! I need LogKs for each item below, if you can.
1. CS(=O)(=O)O.Clc1ccc(-n2cc(COc3nc4ccc(C5=NCCCN5)cc4s3)nn2)cc1 [12b]
2. CS(=O)(=O)O.c1ccc(-n2cc(-c3nc4ccc(C5=NCCN5)cc4s3)nn2)cc1 [14a]
3. N=C(N)c1ccc2nc(-c3ccc(OCc4cn(-c5ccc(Cl)cc5)nn4)cc3)sc2c1 [10b]
4. CS(=O)(=O)O.Clc1ccc(-n2cc(COc3nc4ccc(C5=NCCN5)cc4s3)nn2)cc1 [11b]

Completion:
1. 7.0
2. 5.6
3. 6.6
4. 6.6

* * *

System: Bloodstream form T. b. brucei (strain 221)
ASSAY PROCEDURE: Antitrypanosomal screening (resazurin)
Format: cell-based
ASSAY SETUP: Trypanosoma brucei, mean of triplicate ± SEM
Exercise: state measured pIC50 for each of the compounds provided.
Give bare numbers, as −log10 of the molar value.

Hi there! I need pIC50 for each item below, if you can.
1. N=C(N)c1ccc2nc(-c3cn(-c4ccccc4)nn3)sc2c1 [13a]
2. COc1ccc(-n2cc(-c3nc4ccc(C5=NCCN5)cc4s3)nn2)cc1.CS(=O)(=O)O [14c]
3. COc1ccc(-n2cc(COc3ccc(-c4nc5ccc(C(=N)N)cc5s4)cc3)nn2)cc1 [10c]
4. CS(=O)(=O)O.Clc1ccc(-n2cc(COc3nc4ccc(C5=NCCCN5)cc4s3)nn2)cc1 [12b]
5. N=C(N)c1ccc2nc(-c3cn(-c4ccc(Cl)cc4)nn3)sc2c1 [13b]

Completion:
1: 5.69; 2: 6.51; 3: 6.00; 4: 6.04; 5: 6.17

Hi there! I need pIC50 for each item below, if you can.
1. N=C(N)c1ccc2nc(-c3ccc(OCc4cn(-c5ccc(Cl)cc5)nn4)cc3)sc2c1 [10b]
2. CS(=O)(=O)O.c1ccc(-n2cc(-c3nc4ccc(C5=NCCN5)cc4s3)nn2)cc1 [14a]
3. CS(=O)(=O)O.Clc1ccc(-n2cc(COc3nc4ccc(C5=NCCN5)cc4s3)nn2)cc1 [11b]
4. CS(=O)(=O)O.Clc1ccc(-n2cc(-c3nc4ccc(C5=NCCCN5)cc4s3)nn2)cc1 [15b]

Completion:
1. 6.27
2. 6.40
3. 7.05
4. 5.95

* * *

Tested on: calf thymus ctDNA
ASSAY PROCEDURE: Fluorimetric titration with ctDNA
Type: binding
ASSAY SETUP: fluorescence intensity of complex / starting intensity, ctDNA, pH 7.0
Protocol: The calf thymus ctDNA was additionally sonicated and filtered through a […]. Polynucleotide concentration was determined spectroscopically[50]^,[51] as the concentration of phosphates. Fluorescence spectra were recorded on a Varian Cary Eclipse spectrophotometer at 25 °C using appropriate 1 cm path quartz cuvettes. […] In fluorimetric experiments, an excitation wavelength of λexc ≥300 nm was used to avoid the inner filter effect caused due to increasing absorbance of the polynucleotide. […]
Exercise: state measured I/I0 for each of the compounds provided.
Give bare numbers.

Below, each entry is followed by its recorded I/I0 result.
Prompt: What value of I/I0 has been reported for the following compound? CS(=O)(=O)O.Clc1ccc(-n2cc(COc3nc4ccc(C5=NCCCN5)cc4s3)nn2)cc1 [12b]
Completion: 0.31

Prompt: What value of I/I0 has been reported for the following compound? CS(=O)(=O)O.Clc1ccc(-n2cc(-c3nc4ccc(C5=NCCN5)cc4s3)nn2)cc1 [14b]
Completion: 0.45

Prompt: What value of I/I0 has been reported for the following compound? CS(=O)(=O)O.c1ccc(-n2cc(COc3nc4ccc(C5=NCCN5)cc4s3)nn2)cc1 [11a]
Completion: 0.18

Prompt: What value of I/I0 has been reported for the following compound? CS(=O)(=O)O.c1ccc(-n2cc(-c3nc4ccc(C5=NCCN5)cc4s3)nn2)cc1 [14a]
Completion: 0.54

Prompt: What value of I/I0 has been reported for the following compound? CS(=O)(=O)O.Clc1ccc(-n2cc(COc3nc4ccc(C5=NCCN5)cc4s3)nn2)cc1 [11b]
Completion: 0.21

Hi there! I need I/I0 for each item below, if you can.
1. CS(=O)(=O)O.Clc1ccc(-n2cc(-c3nc4ccc(C5=NCCCN5)cc4s3)nn2)cc1 [15b]
2. N=C(N)c1ccc2nc(-c3ccc(OCc4cn(-c5ccc(Cl)cc5)nn4)cc3)sc2c1 [10b]

Completion:
0.35
0.12
